System: MILI (PIWIL2) piRISC loaded with L1MC piRNA (26 nt);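 note: 1 nM active piRISC with 0.1 nM target library at 33 °C single turnover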
Test: pre-steady-state target cleavage rate (min^-1); guide: L1MC piRNA 5'p-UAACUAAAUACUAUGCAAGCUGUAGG; higher = faster piRNA-guided slicing of the target
Settings: auxiliary factor: none (no GTSF1)
Parameter pre-steady-state target cleavage rate: see the listing below.
Answer field: number only, no words.

# annotated cases, reported pre-steady-state target cleavage rate shown
UCCUGGAUGUGGUAGCAUAGUAUUUAGUUA: 0.00767
UCCUGGUACAGCUUGCAUAGUAUUCUAGUUA: 0.00551
UCCUGGAUCAGGAUGCAUAGUAUUUAGUAA: 0.00364
UCCUCCUACAGUUGCAUAGUAUUUAGUUA: 0.00612
UCCUGCUACAGCAUGCAUUGUAUUUAGUUA: 0.00734

Ask | Which pre-steady-state target cleavage rate reading was recorded for the sequence `UCCUGCUACAGCUUGCAUAGUUAUUUAGUUA` ?
Reply | 0.00428

Ask | Record request: pre-steady-state target cleavage rate value, item UCCUGGAUGUGCUUGCAUAGUAUUUAGUUU [g2:g20:cont:t1U]
Reply | 0.0103

Ask | Give its pre-steady-state target cleavage rate value. Item: `UCCUGGAUGUCGUUGCAUAGUAUUAUAGUUA`
Reply | 0.00429

Ask | Using the record for `UCCUGGAUGUCGAUGCAUAGUAUUUGAGUUA` , report its pre-steady-state target cleavage rate.
Reply | 0.00324

Ask | Bench note: what pre-steady-state target cleavage rate did `UCCUGCUACAGCUUGCAAUCUAUUUAGUUA` show?
Reply | 0.00243

Ask | // lookup pre-steady-state target cleavage rate for `UCCUGGUAGAGCUUGCAUAGUAAUUAGUUA`
Reply | 0.00729

Ask | Field request: pre-steady-state target cleavage rate | item: `UCCUGGAUCAGCUUGCUUACUAUUUAGUUA`
Reply | 0.00436

###

Test system: EfPiwi piRISC loaded with L1MC piRNA (26 nt)
Assay: pre-steady-state target cleavage rate (min^-1); auxiliary factor: none (no Gtsf1); guide: L1MC piRNA 5'p-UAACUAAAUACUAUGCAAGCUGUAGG; MIWI and MILI are mouse PIWI proteins and EfPiwi is from a freshwater sponge; tags in brackets are library labels; higher = faster piRNA-guided slicing of the target
Reported pre-steady-state target cleavage rate values for a set of sequences

In the examples that follow, each entry is paired with its recorded pre-steady-state target cleavage rate.
UCCUGGAUGUCGAUGCAUUGAAUUUAGUUA: < 0.0001
UCCUGGAUGUCGAUGCAUAGAAAUUAGUUA: < 0.0001
UCCUGGUGACAGCUUGCAUAGUAUUUAGUUA: 0.0577
UCCUGGAUCAGCUUGCAUAGCAUUUAGUUA: 0.00546

Ask | Please provide the recorded pre-steady-state target cleavage rate for `UCCUGGAUGUCGAUGCAUCAGUAUUUAGUUA` , tested on EfPiwi piRISC loaded with L1MC piRNA (26 nt).
Reply | < 0.0001

Ask | So what pre-steady-state target cleavage rate did `UCCUGGAUGUCCUUGCAUUCAAUUUAGUAA` get with EfPiwi piRISC loaded with L1MC piRNA (26 nt)?
Reply | < 0.0001

Ask | Can you look up pre-steady-state target cleavage rate on EfPiwi piRISC loaded with L1MC piRNA (26 nt) for `UCCUGGAUGUCGAACGUAUGUAUUUGAGUUA` ?
Reply | < 0.0001

Ask | Query pre-steady-state target cleavage rate on EfPiwi piRISC loaded with L1MC piRNA (26 nt) for `UCCUGGAUGUCCUUGCAUACUAUUUAGAUA`
Reply | < 0.0001

Ask | Lookup: pre-steady-state target cleavage rate / EfPiwi piRISC loaded with L1MC piRNA (26 nt) / `UCCUGGAUGUCGUUGCAUAGAUUUAGUUA`
Reply | < 0.0001

Ask | Lab request: please report pre-steady-state target cleavage rate under test system EfPiwi piRISC loaded with L1MC piRNA (26 nt) for `UCCUGCUACAGCUUGGAUAGUAUUUACAAA`
Reply | < 0.0001

Ask | // map `UCCUGGAUGUCCUUGCAUAGUAUUUCAGUUA` to recorded pre-steady-state target cleavage rate (system: EfPiwi piRISC loaded with L1MC piRNA (26 nt))
Reply | < 0.0001

Ask | Item `UCCUCCUACAGCUUGGAUACUAUUUAGUUA` with EfPiwi piRISC loaded with L1MC piRNA (26 nt) - pre-steady-state target cleavage rate?
Reply | 0.00497

Ask | Value wanted: pre-steady-state target cleavage rate (EfPiwi piRISC loaded with L1MC piRNA (26 nt)) of entry `UCCUGGAAGAGCUUGCAUACUAUUUAGUUA`
Reply | 0.00581

Ask | Record lookup: for EfPiwi piRISC loaded with L1MC piRNA (26 nt), what pre-steady-state target cleavage rate belongs to `UCCUGGAAGAGCUUGCUUAGUAUUUAGUUA` ?
Reply | 0.00878

Ask | Item `UCCUGGAACAGCUUGUAUAGUAUUUAGUUA` with EfPiwi piRISC loaded with L1MC piRNA (26 nt) - pre-steady-state target cleavage rate?
Reply | 0.00519
